# experiment_description: xn = mol fraction of the nth substance listed, in the solute-free solvent
# cond: 283.15 K; x2 = 0.9
Overview of recorded solubility (g/100 g solution) for various compounds
Enter a number only.

compound	solubility (g/100 g solution)
CCCCOc1ccc(C(=O)CCN2CCCCC2)cc1.Cl + CCO + O	34.8
CCCCOc1ccc(C(=O)CCN2CCCCC2)cc1.Cl + CCO + CCOC(C)=O	30.7
COC1=CC(=O)CC(C)C12Oc1c(Cl)c(OC)cc(OC)c1C2=O (stereo unspecified) + CC(=O)CC(C)C + CC(C)O	0.675
COC1=CC(=O)CC(C)C12Oc1c(Cl)c(OC)cc(OC)c1C2=O (stereo unspecified) + CC(C)=O + CC(C)O	2.56
COC1=CC(=O)CC(C)C12Oc1c(Cl)c(OC)cc(OC)c1C2=O (stereo unspecified) + CCC(C)=O + CC(C)O	1.84
O=C1CCc2ccc(OCCCCN3CCN(c4cccc(Cl)c4Cl)CC3)cc2N1 + CCC(C)=O + CCOC(C)=O	1.34
CCCCOc1ccc(C(=O)CCN2CCCCC2)cc1.Cl + CO + C1CCOC1	44.6
CCCCOc1ccc(C(=O)CCN2CCCCC2)cc1.Cl + CCO + CCCCCC	30.4

input: Recorded solubility (g/100 g solution) of O=C1CCc2ccc(OCCCCN3CCN(c4cccc(Cl)c4Cl)CC3)cc2N1 + CCC(C)=O + CC(C)=O , please.
output: 1.47

input: # get_value(readout='solubility (g/100 g solution)', item= O=C1CCc2ccc(OCCCCN3CCN(c4cccc(Cl)c4Cl)CC3)cc2N1 + CCC(C)=O + CCCO )
output: 1.94

input: // lookup solubility (g/100 g solution) for O=C(O)C1CSCN1 (stereo unspecified) + O + CC#N
output: 1.4

Numbers sourced from the CheMixHub drug solubility set.
